Observed GI50 values for K-562 leukemia are listed in what follows.

{"compound": "O=C1NCCS(=O)(=O)/C1=C\\C=C\\c1cccc(C(F)(F)F)c1", "tested-system": "K-562 leukemia", "GI50": "2480 nM"}
{"compound": "N#Cc1cc(S(=O)(=O)Nc2nc3ccccc3s2)c(SCc2ccccc2)cc1Cl", "tested-system": "K-562 leukemia", "GI50": "38500 nM"}
{"compound": "COc1ccc(-c2nn(-c3cccc(NC(=O)c4ccc(N5CCOCC5)c(C(F)(F)F)c4)c3)cc2-c2ccncc2)cc1Cl", "tested-system": "K-562 leukemia", "GI50": "1890 nM"}
{"compound": "Cc1nc(Nc2nc3ccccc3o2)nc(-c2cccc([N+](=O)[O-])c2)c1C(=O)Nc1ccc(F)c(Cl)c1", "tested-system": "K-562 leukemia", "GI50": "1840 nM"}
{"compound": "CC(=O)Oc1ccc(C(c2ccc(OC(C)=O)cc2)c2ccccn2)cc1", "tested-system": "K-562 leukemia", "GI50": "39300 nM"}
{"compound": "COc1ccc(C2=CC(c3ccc(OC)c(OC)c3)c3c(c4ccccc4oc3=O)O2)cc1OC (stereo unspecified)", "tested-system": "K-562 leukemia", "GI50": "1020 nM"}
{"compound": "Oc1ccc(Cl)cc1CNc1nc2ccccc2[nH]1", "tested-system": "K-562 leukemia", "GI50": "15400 nM"}
{"compound": "COc1ccc(Nc2cc(C)nc(N3CCN(c4ccnc5cc(Cl)ccc45)CC3)n2)cc1", "tested-system": "K-562 leukemia", "GI50": "2340 nM"}
{"compound": "C=CCCCc1ccc(C(O)CCCCCCCCCCCC)o1 (stereo unspecified)", "tested-system": "K-562 leukemia", "GI50": "24500 nM"}
{"compound": "CCCNc1nc2ccccc2c2c1S(=O)(=O)c1ccc(Cl)cc1C2=O", "tested-system": "K-562 leukemia", "GI50": "450 nM"}
{"compound": "CO[C@H]1CC(c2ccc[nH]2)=N[C@]12O[C@@H](C)C[C@@H]1CCCCCCCc3ccc([nH]3)[C@H]12", "tested-system": "K-562 leukemia", "GI50": "821 nM"}

----------
Test system: A498 renal
Assay: NCI tumour cell line growth inhibition, 48 h
readout-type: TGI

{"molecule": "CNC(=O)OCC1C2=C(C(=O)C(C)=C(N)C2=O)N2CC3C(N3C)C12OC (stereo not given)", "reading": "34.2 µM"}
{"molecule": "CC1OC(OC2C(Oc3cc(O)c4c(c3)O[C@H](c3ccc(O)cc3)CC4=O)OC(CO)C(O)C2O)C(O)C(O)C1O (stereo not given in full)", "reading": "> 100 µM"}
{"molecule": "N#CCCN(CCN(CCC#N)C(=O)Nc1ccccc1)C(=O)Nc1ccccc1", "reading": "> 100 µM"}
{"molecule": "Cn1c(=O)c(Oc2ccc(F)cc2F)cc2cnc(NCCS(C)(=O)=O)nc21", "reading": "> 25 µM"}
{"molecule": "COC1OC2COC(c3ccccc3)OC2C(O)C1Br (stereo not given)", "reading": "> 100 µM"}
{"molecule": "O=C(/C=C(\\O)c1ccccc1)c1cc(-c2ccccc2)n(-c2ccccc2)n1", "reading": "> 100 µM"}
{"molecule": "Cc1cccc(C(C)(C)C)c1NC(=O)CC1Sc2ccccc2NC1=O (stereo not given)", "reading": "> 100 µM"}
{"molecule": "COc1ccc(C(=O)Nc2ccc3oc(-c4ccccc4)nc3c2)cc1", "reading": "> 100 µM"}
{"molecule": "CCc1nc(N)nc(N)c1-c1ccc(Cl)c(N=CN(C)C)c1", "reading": "> 100 µM"}
{"molecule": "O=C1CC(c2ccc(Cl)cc2)Oc2ccccc21 (stereo not given)", "reading": "73 µM"}

----------
Tested on: NCI/ADR-RES ovarian
Assay: NCI tumour cell line growth inhibition, 48 h
Record TRUE whenever TGI is at 40 µM or higher; record FALSE when lower.

{"compound": "O=c1ccn(C2OC(CN(O)CCC3C(CO)OC(n4ccc(=O)[nH]c4=O)C3O)C(O)C2O)c(=O)[nH]1 (stereo not drawn)", "label-value": "TRUE"}
{"compound": "COC(=O)c1ccc(NCc2cc(O)ccc2O)cc1", "label-value": "FALSE"}
{"compound": "C=CCN1CN(c2ccccc2)C2(CCN(CCCC3(c4ccc(F)cc4)OCCO3)CC2)C1=O", "label-value": "FALSE"}
{"compound": "COc1cc2c(cc1OC)C(=O)N(NC1=NCCN1)C2=O", "label-value": "TRUE"}
{"compound": "ClCc1ccc(Cn2cnc3c(Cl)nc(Cl)nc32)cc1", "label-value": "TRUE"}
{"compound": "COc1ccccc1CNC(=O)[C@H](Cc1ccc(O)cn1)NC(C)=O", "label-value": "TRUE"}
{"compound": "O=C1C=CC(O)C2C1CC13SSC4(CC5C(=O)C=CC(O)C5N4C1=O)C(=O)N23 (stereo not drawn)", "label-value": "FALSE"}
{"compound": "CCOC(=O)c1c(C)c(C)n2c1NC(=O)C2", "label-value": "TRUE"}
{"compound": "Cc1ncc([N+](=O)[O-])n1CCNC(=O)Cn1c([N+](=O)[O-])cnc1C", "label-value": "TRUE"}
{"compound": "COc1cc2oc(=O)ccc2cc1CC=C(C)C", "label-value": "TRUE"}
{"compound": "c1ccc(CNc2nc(Nc3ccccc3)nc3ccccc23)cc1", "label-value": "FALSE"}
{"compound": "CC1=C(C(=O)OC(C)C)C(c2ccccc2C(F)(F)F)C(C(=O)OC(CO[N+](=O)[O-])CO[N+](=O)[O-])=C(C)N1 (stereo not drawn)", "label-value": "FALSE"}
{"compound": "COc1ccc(Nc2cc(C)nc(N3CCN(c4ccnc5cc(Cl)ccc45)CC3)n2)cc1", "label-value": "FALSE"}
{"compound": "COc1cccc(-c2nc(-c3cnccn3)n(COCCO)n2)c1", "label-value": "TRUE"}
{"compound": "COc1cc(Cl)cc(-c2nn(-c3cccc(NC(=O)Nc4ccc(Cl)c(C(F)(F)F)c4)c3)cc2-c2ccncc2)c1", "label-value": "FALSE"}
{"compound": "CC1=NN=C(N)NC1=CC(Sc1ccc(Cl)cc1)c1c(O)ccc2ccccc12 (stereo not drawn)", "label-value": "TRUE"}
{"compound": "COc1cc(C2C(Cl)C(=O)N2NC(=O)c2ccc(NC(C)=O)cc2OC)ccc1O (stereo not drawn)", "label-value": "TRUE"}
{"compound": "N#Cc1cc(S(=O)(=O)Nc2nc3ccccc3s2)c(SCc2ccccc2)cc1Cl", "label-value": "TRUE"}
{"compound": "COc1cc(C(=O)Nc2cc(C(N)=O)cc(OC)c2OC)cc(NC(=O)/C=C/c2ccccc2)c1OC", "label-value": "TRUE"}
{"compound": "COc1ccc(Nc2c3ccccc3nc3[nH]c4ccccc4c23)cc1", "label-value": "TRUE"}
{"compound": "c1ccc(CC2(c3cc4ccccc4[nH]3)OCCO2)nc1", "label-value": "TRUE"}
{"compound": "C=C1c2c(Cl)ccc(O)c2C(O)=C2C(=O)[C@]3(O)C(O)=C(C(N)=O)C(=O)[C@@H](N(C)C)[C@@H]3[C@@H](O)[C@H]12", "label-value": "TRUE"}
{"compound": "O=C(NNC(=O)c1ccccc1O)c1ccc(O)cc1", "label-value": "TRUE"}
{"compound": "O=[N+]([O-])c1ccc(S(=O)(=O)Cc2ccccc2)c2nonc12", "label-value": "TRUE"}
{"compound": "COc1ccc(N=[N+]([O-])c2ccc(OC)cc2)cc1", "label-value": "TRUE"}

----------
System: MALME-3M melanoma
Assay: NCI tumour cell line growth inhibition, 48 h

{"molecule": "COc1ccc(CCNCCCC2c3ccccc3-c3ccccc32)cc1OC", "tested-system": "MALME-3M melanoma", "TGI": "27 µM"}
{"molecule": "O=C(Nc1ccc(I)cc1F)c1cc(Cl)ccc1O", "tested-system": "MALME-3M melanoma", "TGI": "1.83 µM"}
{"molecule": "Cc1ccc2c(=O)cc(-c3sc4ccccc4c3C)[nH]c2n1", "tested-system": "MALME-3M melanoma", "TGI": "41.6 µM"}
{"molecule": "CC(C)(C)C1CCC2c3c([nH]c4ccccc34)C3C(=O)N(c4ccc5c(c4)C(=O)c4ccccc4C5=O)C(=O)C3C2C1 (configuration not stated)", "tested-system": "MALME-3M melanoma", "TGI": "> 100 µM"}
{"molecule": "CCC(=O)C(C(C)/C=C/CCSc1ccccc1)C(O)CCCCCC(=O)OC (configuration not stated)", "tested-system": "MALME-3M melanoma", "TGI": "> 100 µM"}
{"molecule": "Cn1cnc([N+](=O)[O-])c1Sc1ncn[nH]1", "tested-system": "MALME-3M melanoma", "TGI": "> 100 µM"}
{"molecule": "COc1ccc(C(=O)Nc2ccc3oc(-c4ccccc4)nc3c2)cc1", "tested-system": "MALME-3M melanoma", "TGI": "> 100 µM"}
{"molecule": "c1ccc(CNc2nc(Nc3ccccc3)nc3ccccc23)cc1", "tested-system": "MALME-3M melanoma", "TGI": "3.38 µM"}
{"molecule": "c1ccc(CC2(c3cc4ccccc4[nH]3)OCCO2)nc1", "tested-system": "MALME-3M melanoma", "TGI": "> 100 µM"}
{"molecule": "O=C(/C=C1/Nc2ccc([N+](=O)[O-])cc2NC1O)c1cccc([N+](=O)[O-])c1 (configuration not stated)", "tested-system": "MALME-3M melanoma", "TGI": "> 100 µM"}
{"molecule": "N#Cc1sc2c(c1O)c(=O)n(-c1ccccc1)c(=S)n2-c1ccccc1", "tested-system": "MALME-3M melanoma", "TGI": "> 100 µM"}
{"molecule": "C[C@]12CC[C@H](O)CC1=CC[C@@H]1C2CC[C@]2(C)Nc3c(cnn3-c3ccc(F)cc3)CC12 (some centres not stated)", "tested-system": "MALME-3M melanoma", "TGI": "> 100 µM"}

FYI, the data here is from PubChem BioAssay (NCI).
